Origin of the recorded values: patent US8940716B2

target: human-mouse chimeric GPR119 (Homo sapiens, UniProt Q8TDV5, A235T/C313R/C323Y/E253K/F304I/F307L/G211A/G245S/H255C/K284R/L224V/L258Q/L288Q/L301F/P218V/P318T/Q252H/R262K/S214P/S219N/S228A/S309P/S322A/T217S/T239S/V227I/V300F); construct: the first 198 amino acids of human GPR119; the C-terminal 137 amino acids of the mouse receptor; expressed in transfected cells; assay: Tet-inducible cAMP assay; format: cell-based; settings: cAMP accumulation (HTRF), Flp-In-T-Rex-HEK293 cells expressing chimeric human/mouse GPR119, 50 min incubation; read-out: GPR119 EC50
Sequence (Q8TDV5 with tags, fused parts or gaps with the stated changes): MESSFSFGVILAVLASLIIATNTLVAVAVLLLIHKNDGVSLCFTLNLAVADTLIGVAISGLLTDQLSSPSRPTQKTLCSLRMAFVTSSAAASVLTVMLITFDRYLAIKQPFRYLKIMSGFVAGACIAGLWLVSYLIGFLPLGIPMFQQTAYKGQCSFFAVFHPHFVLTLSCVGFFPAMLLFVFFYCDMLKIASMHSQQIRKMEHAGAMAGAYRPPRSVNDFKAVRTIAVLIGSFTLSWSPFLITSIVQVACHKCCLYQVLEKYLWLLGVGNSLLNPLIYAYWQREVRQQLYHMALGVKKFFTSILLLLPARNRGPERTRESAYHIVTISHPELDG
pEC50: −log10 of the molar value.
Please use T whenever pEC50 is not below 7, and F whenever it is.

- COMPOUND: "CC(C)(O)CCS(=O)(=O)N1CCC(c2ccc3nc(OC4CCN(c5ncc(Cl)cn5)CC4)sc3c2)CC1 [Example 246]"
  ASSIGNED LABEL: "T"
- COMPOUND: "CCCc1cnc(N2CCC(Oc3nc4ccc(C5=CCN(C(=O)CC(C)C)CC5)cc4s3)CC2)nc1 [Example 63]"
  ASSIGNED LABEL: "F"
- COMPOUND: "CCCc1cnc(N2CCC(Oc3nc4ccc(N5CCC(C(=O)N6CCCC6)CC5)cc4s3)CC2)nc1 [Example 45]"
  ASSIGNED LABEL: "F"
- COMPOUND: "CC(C)(O)CCS(=O)(=O)N1CC=C(c2ccc3nc(OC4CCN(c5nc6ccccc6s5)CC4)sc3c2)CC1 [Example 168]"
  ASSIGNED LABEL: "T"
- COMPOUND: "CCCc1cnc(N2CCC(Nc3nc4ccc(C5=CCN(S(=O)(=O)CCC)CC5)cc4s3)CC2)nc1 [Example 53]"
  ASSIGNED LABEL: "F"

Prompt line: In plain terms: is recorded pEC50 at least 7 for CC(C)OC(=O)N1CCC(Oc2nc3ccc(C4=CCN(C(=O)OC(C)(C)C)CC4)cc3s2)CC1 [Example 301] ?
Response line: F

Prompt line: In plain terms: is recorded pEC50 at least 7 for CCCc1cnc(N2CCC(Oc3nc4ccc(C5=CCN(S(=O)(=O)CCCCC[N+](CC)(CC)CC)CC5)cc4s3)CC2)nc1 [Example 32] ?
Response line: T

Prompt line: In plain terms: is recorded pEC50 at least 7 for CCCc1cnc(N2C[C@@H]3[C@@H](COc4nc5ccc(-c6ccc(S(C)(=O)=O)cc6)cc5s4)[C@@H]3C2)nc1 [Example 266] ?
Response line: F

Prompt line: In plain terms: is recorded pEC50 at least 7 for CCCc1cnc(N2CCC(Oc3nc4ccc(C5=CCN(S(=O)(=O)CCCC(C)(C)O)CC5)cc4s3)CC2)nc1 [Example 114] ?
Response line: T

Prompt line: In plain terms: is recorded pEC50 at least 7 for CCCc1cnc(N2CC[C@H](Oc3nc4ccc(C5=CCN(S(=O)(=O)CCC)CC5)cc4s3)C2)nc1 [Example 115] ?
Response line: T

Prompt line: In plain terms: is recorded pEC50 at least 7 for CCCc1cnc(N2CCC(Oc3nc4ccc(C5=CCN(S(=O)(=O)CCN6CCCC6)CC5)cc4s3)CC2)nc1 [Example 134] ?
Response line: T

Prompt line: In plain terms: is recorded pEC50 at least 7 for CCCNC(=O)N1CC=C(c2ccc3nc(OC4CCN(c5ncc(CCC)cn5)CC4)sc3c2)CC1 [Example 194] ?
Response line: F

Prompt line: In plain terms: is recorded pEC50 at least 7 for COc1cnc(N2CCC(Oc3nc4ccc(C5=CCN(S(=O)(=O)CCCCO)CC5)cc4s3)CC2)nc1 [Example 241] ?
Response line: T

Prompt line: In plain terms: is recorded pEC50 at least 7 for CCCS(=O)(=O)N1CC=C(c2ccc3nc(OC4CCN(C(C)=O)CC4)sc3c2)CC1 [Example 92] ?
Response line: F

Prompt line: In plain terms: is recorded pEC50 at least 7 for CCCc1cnc(N2CCC(Oc3nc4ccc(C5=CCN(S(=O)(=O)CCCC(=O)N(CC)CC)CC5)cc4s3)CC2)nc1 [Example 231] ?
Response line: T

Prompt line: In plain terms: is recorded pEC50 at least 7 for CCCc1cnc(N2CCC(Cc3nc4ccc(N5CCN(S(=O)(=O)CCC(=O)OC)CC5)cc4o3)CC2)nc1 [Example 144] ?
Response line: F

Prompt line: In plain terms: is recorded pEC50 at least 7 for CCCc1cnc(N2CCC(Nc3nc4ccc(C5=CCN(S(C)(=O)=O)CC5)cc4s3)CC2)nc1 [Example 54] ?
Response line: F

Prompt line: In plain terms: is recorded pEC50 at least 7 for CC(C)(O)CCS(=O)(=O)N1CC=C(c2ccc3nc(OC4CCN(c5ncc(Cl)cn5)CC4)sc3c2)CC1 [Example 118] ?
Response line: T

Prompt line: In plain terms: is recorded pEC50 at least 7 for CCCc1cnc(N2CCC(Oc3nc4ccc(C5=CCN(c6nc(C)cs6)CC5)cc4s3)CC2)nc1 [Example 60] ?
Response line: F

Prompt line: In plain terms: is recorded pEC50 at least 7 for CCCS(=O)(=O)N1CC=C(c2ccc3nc(OC4CCN(S(C)(=O)=O)CC4)sc3c2)CC1 [Example 111] ?
Response line: F

Prompt line: In plain terms: is recorded pEC50 at least 7 for CCCc1cnc(N2CCN(c3nc4ccc(C5=CCN(S(=O)(=O)CC(C)C)CC5)cc4s3)CC2)nc1 [Example 133] ?
Response line: F

Prompt line: In plain terms: is recorded pEC50 at least 7 for Cc1cc(C)nc(N2CCC(Oc3nc4ccc(-c5ccc(S(C)(=O)=O)cc5)cc4s3)CC2)n1 [Example 296] ?
Response line: T

Prompt line: In plain terms: is recorded pEC50 at least 7 for CC(C)c1noc(N2CCC(Oc3nc4ccc(C5=CCN(S(=O)(=O)CCC(C)(C)O)CC5)cc4s3)CC2)n1 [Example 44] ?
Response line: T

Prompt line: In plain terms: is recorded pEC50 at least 7 for O=S(=O)(CCCO)N1CCN(c2ccc3nc(OC4CCN(c5ncc(F)cn5)CC4)sc3c2)CC1 [Example 221] ?
Response line: T

Prompt line: In plain terms: is recorded pEC50 at least 7 for CCCc1cnc(N2CCC(Oc3nc4ccc(C5=CCN(S(=O)(=O)C[C@@H](C)CO)CC5)cc4s3)CC2)nc1 (single isomer, unassigned) [Example 19] ?
Response line: T

Prompt line: In plain terms: is recorded pEC50 at least 7 for CCCc1cnc(N2CCC(Oc3nc4ccc(C5=CCN(S(=O)(=O)CCC(C)(C)OC(=O)CCC(=O)O)CC5)cc4s3)CC2)nc1 [Example 39] ?
Response line: T
